test: Aqueous solubility of the compound at pH 7; assay type: physicochemical
molecules and their reported solubility
quantity.measured: solubility (µM)

{"molecule": "Cc1cccc2c1C1(CC2)NC(=O)c2c3c(c(O)c(=O)n21)C(=O)N(Cc1ccc(F)c(Cl)c1)CC3 (racemic)", "op": "<", "assay.result": 2}
{"molecule": "Cc1cccc2c1CCC21NC(=O)c2c3c(c(O)c(=O)n21)C(=O)N(Cc1ccc(F)c(Cl)c1)CC3 (racemic)", "op": "<", "assay.result": 2}
{"molecule": "O=C1NC2(Cc3ccccc3C2)n2c1c1c(c(O)c2=O)C(=O)N(Cc2ccc(F)c(Cl)c2)CC1", "op": "<", "assay.result": 3}
{"molecule": "CC1CCC2(C1)NC(=O)c1c3c(c(O)c(=O)n12)C(=O)N(Cc1ccc(F)c(Cl)c1)CC3 (racemic)", "op": "<", "assay.result": 5}
{"molecule": "O=C1N[C@]2(CC[C@H]3C[C@H]32)n2c1c1c(c(O)c2=O)C(=O)N(Cc2ccc(F)c(Cl)c2)CC1", "op": "=", "assay.result": 31}
{"molecule": "Cc1ccc2c(c1)C1(CC2)NC(=O)c2c3c(c(O)c(=O)n21)C(=O)N(Cc1ccc(F)c(Cl)c1)CC3 (racemic)", "op": "<", "assay.result": 2}
{"molecule": "CO[C@H](C)CN1C(=O)c2c3c(c(O)c(=O)n2C12CCC1CC12)C(=O)N(Cc1ccc(F)c(Cl)c1)CC3 (some centres not stated)", "op": "=", "assay.result": 26}
{"molecule": "O=C1NC2(CCc3ccccc32)n2c1c1c(c(O)c2=O)C(=O)N(Cc2ccc(F)c(Cl)c2)CC1 (racemic)", "op": "<", "assay.result": 2}
{"molecule": "O=C1c2c(c3n(c(=O)c2O)C2(CCC4CC42)N(CCN2C(=O)CCC2=O)C3=O)CCN1Cc1ccc(F)c(Cl)c1 (configuration not stated)", "op": "=", "assay.result": 48}
{"molecule": "O=C1c2c(c3n(c(=O)c2O)C2(CCC4CC42)N(CC2CCOCC2)C3=O)CCN1Cc1ccc(F)c(Cl)c1 (racemic)", "op": "=", "assay.result": 14}
{"molecule": "O=C1c2c(c3n(c(=O)c2O)[C@@H](C2CC2)N(C2CC2)C3=O)CCN1Cc1ccc(F)c(Cl)c1", "op": "=", "assay.result": 34}
{"molecule": "CN1C(=O)c2c3c(c(O)c(=O)n2C12CCC2)C(=O)N(Cc1ccc(F)c(Cl)c1)CC3", "op": "<", "assay.result": 5}
